Value source: PubChem BioAssay AID1159614

TARGET_DESC: Galactocerebrosidase (Homo sapiens)
ASSAY_PROTOCOL: A Novel Cell-Based Assay to Identify Small Molecules for B -Galactocerebrosidase; note: nearly all actives have a fitted effect of over 65% in size
CONDITION_CONTEXT: 145M-Twi-hGALC-G270D cells (Twitcher mouse brain line with human GALC G270D), HMU-beta-Gal fluorescence, 48 h; series mostly up to 57.5 µM
About 65 (0.1%) of roughly 45,000 compounds were called active. The list comes from a sample in which actives are over-represented; it also holds close analogues and randomly drawn compounds.

{"columns": ["COMPOUND", "outcome"],
 "data": [
  ["CCOc1ccccc1NC(=O)CCS(=O)(=O)c1cccc2nsnc12", "inactive"],
  ["COc1cc(C(=O)NCCS(=O)(=O)N2CCN(c3ccccc3)CC2)cc(OC)c1OC", "inactive"],
  ["O=C(NCCCO)c1nn(-c2ccc(Cl)cc2)nc1CO", "inactive"],
  ["CN1C(=O)c2ccccc2Sc2ccc(NC(=O)Cc3ccc(Cl)cc3)cc21", "inactive"],
  ["O=C(NC1CC(=O)N(c2ccccc2)C1)c1ccco1 (stereo unspecified)", "inactive"],
  ["COc1ccc(CNS(=O)(=O)c2ccc(-c3cnc(C4CC4)o3)cc2)cc1", "inactive"],
  ["CCCCN(CC)C(=O)c1c[nH]c2ccc(S(=O)(=O)Nc3cccc(OC)c3)cc2c1=O", "inactive"],
  ["NC(=O)C1CCN(C(=O)c2cccc(NC(=O)c3nsc4ccccc34)c2)CC1", "inactive"],
  ["Cc1ccccc1OCc1nc2c3cnn(-c4ccccc4F)c3ncn2n1", "inactive"],
  ["Cc1cc(C)cc(OCC(=O)Nc2nc(-c3ccc(F)cc3)ns2)c1", "inactive"],
  ["CCc1ccc(N2C(=O)CN(S(=O)(=O)CC)CC2(C)C(=O)NC2CCCCC2)cc1 (stereo unspecified)", "inactive"]
]}
